Known % Neutralization of a selection of binders
biological target: hemagglutinin (HA) on live influenza A virus A/Wisconsin/67/05 H3N2 (Influenza A virus A/Wisconsin/67/2005 …); experiment: cell-based or functional assay
Only the number, expressed in %, is required.

A selection of reference data follows.
{"BINDER": "TCN-544 (5082_A19) (antibody, V domains shown) VH: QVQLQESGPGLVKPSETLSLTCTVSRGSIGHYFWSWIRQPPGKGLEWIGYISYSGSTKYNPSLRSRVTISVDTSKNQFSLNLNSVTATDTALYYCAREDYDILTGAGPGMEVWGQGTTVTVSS VL: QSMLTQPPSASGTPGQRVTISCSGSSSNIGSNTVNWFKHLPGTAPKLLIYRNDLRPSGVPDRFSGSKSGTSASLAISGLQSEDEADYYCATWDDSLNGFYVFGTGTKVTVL", "% Neutralization, %": 97}
{"BINDER": "TCN-555 (5246_L16) (antibody, V domains shown) VH: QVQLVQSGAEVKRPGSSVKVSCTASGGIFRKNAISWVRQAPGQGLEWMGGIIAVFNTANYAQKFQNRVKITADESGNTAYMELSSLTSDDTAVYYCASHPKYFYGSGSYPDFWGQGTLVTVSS VL: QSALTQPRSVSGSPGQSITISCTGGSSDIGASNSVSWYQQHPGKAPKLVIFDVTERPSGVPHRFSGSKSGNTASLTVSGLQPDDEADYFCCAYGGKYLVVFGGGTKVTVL", "% Neutralization, %": 5}
{"BINDER": "TCN-551 (5243_D01) (antibody, V domains shown) VH: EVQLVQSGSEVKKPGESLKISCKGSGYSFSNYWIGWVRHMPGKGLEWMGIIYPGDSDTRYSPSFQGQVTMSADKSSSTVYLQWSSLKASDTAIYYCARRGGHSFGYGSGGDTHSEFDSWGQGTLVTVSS VL: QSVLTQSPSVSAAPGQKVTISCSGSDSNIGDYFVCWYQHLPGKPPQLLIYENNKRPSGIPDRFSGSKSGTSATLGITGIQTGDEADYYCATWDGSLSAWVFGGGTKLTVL", "% Neutralization, %": 6}
{"BINDER": "TCN-542 (5079_A16) (antibody, V domains shown) VH: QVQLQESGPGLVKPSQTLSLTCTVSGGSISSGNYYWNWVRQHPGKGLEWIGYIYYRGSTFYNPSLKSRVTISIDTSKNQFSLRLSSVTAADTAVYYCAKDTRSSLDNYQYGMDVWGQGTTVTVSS VL: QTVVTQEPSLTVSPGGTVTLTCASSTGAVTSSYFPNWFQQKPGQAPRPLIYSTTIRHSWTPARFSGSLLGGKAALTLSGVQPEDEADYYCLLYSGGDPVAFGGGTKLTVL", "% Neutralization, %": 8}
{"BINDER": "TCN-538 (3206_O17) (antibody, V domains shown) VH: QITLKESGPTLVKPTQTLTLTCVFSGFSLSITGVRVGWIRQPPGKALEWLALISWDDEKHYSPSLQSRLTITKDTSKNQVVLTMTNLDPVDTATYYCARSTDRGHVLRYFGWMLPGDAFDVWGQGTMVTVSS VL: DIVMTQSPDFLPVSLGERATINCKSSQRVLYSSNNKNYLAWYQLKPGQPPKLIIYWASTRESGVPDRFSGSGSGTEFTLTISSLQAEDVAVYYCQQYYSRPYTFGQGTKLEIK", "% Neutralization, %": 0}

Prompt: Give the measured % Neutralization of TCN-550 (5096_F06) (antibody, V domains shown) VH: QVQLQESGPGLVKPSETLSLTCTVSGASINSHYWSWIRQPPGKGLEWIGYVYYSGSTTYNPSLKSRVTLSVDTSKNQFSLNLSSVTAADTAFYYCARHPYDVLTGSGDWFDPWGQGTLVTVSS VL: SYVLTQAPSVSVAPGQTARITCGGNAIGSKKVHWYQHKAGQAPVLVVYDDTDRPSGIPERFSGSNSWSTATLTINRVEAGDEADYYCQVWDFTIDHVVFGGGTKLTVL .
Completion: 100

Prompt: Now the same for TCN-537 (3194_D21) (antibody, V domains shown) VH: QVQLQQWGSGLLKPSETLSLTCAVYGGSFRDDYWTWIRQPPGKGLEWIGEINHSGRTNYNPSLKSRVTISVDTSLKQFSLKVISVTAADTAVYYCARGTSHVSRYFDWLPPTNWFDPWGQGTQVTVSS VL: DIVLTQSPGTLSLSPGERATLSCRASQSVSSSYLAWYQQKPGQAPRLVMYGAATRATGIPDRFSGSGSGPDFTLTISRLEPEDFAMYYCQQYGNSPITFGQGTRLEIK
Completion: 0

Prompt: Now the same for TCN-534 (5249_B02) (antibody, V domains shown) VH: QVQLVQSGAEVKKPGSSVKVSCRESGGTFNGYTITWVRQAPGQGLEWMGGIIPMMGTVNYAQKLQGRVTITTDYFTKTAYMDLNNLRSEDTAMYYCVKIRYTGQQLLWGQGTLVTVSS VL: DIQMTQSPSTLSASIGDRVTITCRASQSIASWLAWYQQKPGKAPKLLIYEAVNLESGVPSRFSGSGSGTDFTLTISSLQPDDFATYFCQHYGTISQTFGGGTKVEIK
Completion: 0

Prompt: Now the same for TCN-554 (5277_M05) (antibody, V domains shown) VH: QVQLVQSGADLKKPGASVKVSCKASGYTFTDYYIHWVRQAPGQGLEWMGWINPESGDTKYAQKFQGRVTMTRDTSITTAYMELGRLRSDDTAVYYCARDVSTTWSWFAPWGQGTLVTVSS VL: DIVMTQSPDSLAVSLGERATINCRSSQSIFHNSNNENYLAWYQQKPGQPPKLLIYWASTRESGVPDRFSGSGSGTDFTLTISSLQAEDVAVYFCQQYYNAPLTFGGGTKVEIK
Completion: 100

Prompt: Now the same for TCN-545 (5082_I15) (antibody, V domains shown) VH: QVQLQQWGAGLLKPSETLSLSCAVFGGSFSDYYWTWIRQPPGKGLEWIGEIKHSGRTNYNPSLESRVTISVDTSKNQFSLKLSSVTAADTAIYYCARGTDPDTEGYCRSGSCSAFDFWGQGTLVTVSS VL: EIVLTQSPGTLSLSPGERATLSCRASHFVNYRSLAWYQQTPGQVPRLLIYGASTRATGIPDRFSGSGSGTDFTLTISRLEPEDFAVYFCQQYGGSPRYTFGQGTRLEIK
Completion: 99

The measured values listed here are drawn from patent US20120207760A1.
